These measurements were taken from PubChem BioAssay (NCI).

# Test system: A549 NSCLC
# experiment.description: NCI tumour cell line growth inhibition, 48 h
Here the recorded TGI is given for each entry.
parameter.measured: TGI

{"molecule": "CCCSc1cc(Cl)c(C)cc1S(=O)(=O)n1ccnc1OCCCN(C)C", "parameter.measured": "TGI", "observed": "> 100 µM"}
{"molecule": "COc1cc(Oc2nc3ccccc3nc2C(=O)O)cc(OC)c1OC", "parameter.measured": "TGI", "observed": "> 100 µM"}
{"molecule": "CN(NC(=O)/C(=C/c1ccc(O)cc1)NC(=O)c1ccccc1)c1ccnc2cc(Cl)ccc12", "parameter.measured": "TGI", "observed": "38.4 µM"}
{"molecule": "Cc1c2c(n3c(nc4ccccc43)c1C#N)SCC2", "parameter.measured": "TGI", "observed": "> 10 µM"}
{"molecule": "COC12C=C/C(=C(/C(=O)OCc3ccncn3)C(=O)CCCCCCCCC3(OC)C=C/C(=C(/C(=O)OCc4ccncn4)C(=O)CCCCCCCC1)O3)O2", "parameter.measured": "TGI", "observed": "1.49 µM"}
{"molecule": "[N-]=[N+]=Nc1ccc(S(=O)(=O)Oc2cc(OS(=O)(=O)c3ccc(N=[N+]=[N-])cc3)cc(OS(=O)(=O)c3ccc(N=[N+]=[N-])cc3)c2)cc1", "parameter.measured": "TGI", "observed": "> 100 µM"}
{"molecule": "CCOC(=O)c1cc2c(n1Cc1cccc(OC)c1)-c1oncc1CC2", "parameter.measured": "TGI", "observed": "> 100 µM"}
{"molecule": "Cc1cn(C2CC(O)C(CO)C2C)c(=O)[nH]c1=O (stereo not given)", "parameter.measured": "TGI", "observed": "> 100 µM"}
{"molecule": "NC(=O)C/C=C/CC(N)=O", "parameter.measured": "TGI", "observed": "> 100 µM"}
{"molecule": "COc1ccc(CN2CCc3c(Cl)nc(N)nc3C2=O)c(OC)c1", "parameter.measured": "TGI", "observed": "> 100 µM"}

----------
# System: MALME-3M melanoma
# experiment.description: NCI tumour cell line growth inhibition, 48 h; in the data active = GI50 below about 0.43 µM; inactive = the rest
Possible outcomes: active, inactive

{"molecule": "COc1cc[c]([Hg][Cl])cc1", "label.value": "inactive"}
{"molecule": "C=C1C(=O)OC(CCCCCCCC)C1C(=O)O (stereo unspecified)", "label.value": "inactive"}
{"molecule": "Clc1ccc(Cl)c(N/N=C\\c2c[nH]c3ccccc23)c1", "label.value": "inactive"}
{"molecule": "Cc1nc2c(cnn2-c2ccnc3c(C(F)(F)F)cccc23)c(=O)o1", "label.value": "inactive"}
{"molecule": "COc1ccc(C(=O)CC2(O)C(=O)Nc3c(Cl)ccc(Cl)c32)cc1 (stereo unspecified)", "label.value": "inactive"}
{"molecule": "CC/C(=C(\\c1ccccc1)c1ccc(OCCN(C)C)cc1)c1ccccc1", "label.value": "inactive"}
{"molecule": "C=C1C(=O)O[C@@H]2[C@@H]3O[C@@](C)(CC/C=C(\\C)CCC[C@@H]2C)[C@H](O)C[C@@H]13", "label.value": "inactive"}
{"molecule": "COc1ccccc1/C=C1\\COc2ccc(O)c(O)c2C1=O", "label.value": "inactive"}
{"molecule": "O=C(Nc1ccc(Cl)cc1)NS(=O)(=O)c1ccc2c(c1)CCC2", "label.value": "inactive"}
{"molecule": "COc1ccc(/C=C2/SC(=Nc3c(C)nn(-c4ccccc4)c3N)NC2=O)cc1", "label.value": "inactive"}
{"molecule": "CCc1nc(N)nc(N)c1-c1ccc(Cl)cc1", "label.value": "inactive"}
{"molecule": "CCc1cc(C(N)=O)ccc1-n1nc(C(C)C)c2c(-n3cnc(-c4cnn(C)c4)c3)ccnc21", "label.value": "inactive"}
{"molecule": "COc1ccc(C(=O)c2cc3c(N)c(C(=O)Nc4cccc(Cl)c4)sc3nc2C)cc1", "label.value": "inactive"}
{"molecule": "O=C(CCCCCCc1nc2ccc(Br)cc2[nH]1)NO", "label.value": "active"}
{"molecule": "O=C1CCC/C=C\\C[C@H]2C=C(Cl)C(=O)/C2=C/C[C@H](CCCCC(F)(F)F)OC(=O)CCC/C=C\\C[C@H]2C=C(Cl)C(=O)/C2=C/C[C@H](CCCCC(F)(F)F)O1", "label.value": "active"}
{"molecule": "CC[C@]1(O)C[C@@H]2CN(Cc3c([nH]c4ccccc34)[C@@](C(=O)OC)(c3cc4c(cc3OC)N(C)[C@H]3[C@@](O)(C(=O)OC)[C@H](OC(C)=O)[C@]5(CC)[C@@H]6C[C@@H]6CN6CC[C@]43[C@@H]65)C2)C1", "label.value": "inactive"}

----------
// reported GI50 for each item listed
# Test system: A549 NSCLC
# experiment.description: NCI tumour cell line growth inhibition, 48 h

{"molecule": "CC/C=C/[C@@H]1C=C[C@@H]2CCC[C@H]2[C@@H]1CC[C@H](O)[C@H](C)N", "GI50": "2.26 µM"}
{"molecule": "COc1cc[c]([Hg][Cl])cc1", "GI50": "23.8 µM"}
{"molecule": "COc1ccc(CCNc2nc3ccccc3c3[nH]c4ccccc4c23)cc1OC", "GI50": "2.66 µM"}
{"molecule": "CC/C(=C(\\c1ccccc1)c1ccc(OCCN(C)C)cc1)c1ccccc1", "GI50": "2.93 µM"}
{"molecule": "COc1ccccc1/C=C1\\COc2ccc(O)c(O)c2C1=O", "GI50": "2.95 µM"}
{"molecule": "CCN1CCC(C(=O)Nc2n[nH]c3nnc(-c4cccc(F)c4F)cc23)CC1", "GI50": "10.5 µM"}
{"molecule": "O=C(CCCCCCc1nc2ccc(Br)cc2[nH]1)NO", "GI50": "0.578 µM"}
{"molecule": "O=c1ccc2nc(-c3ccccc3)nn(-c3ccccc3)c-2c1", "GI50": "9.26 µM"}
{"molecule": "CC(=O)O[C@@H]1C=CC(=O)C2(CC(=O)O[C@@H]2/C=C(\\C)CCC=C(C)C)C1 (some centres undefined)", "GI50": "2.04 µM"}

----------
# reported TGI; entries follow
# Tested on: SK-MEL-2 melanoma
# experiment.description: NCI tumour cell line growth inhibition, 48 h

{"compound": "C=CCCc1cc(OC)ccc1CN(C)C(C)(C)CO", "units.of.measure": "µM", "censoring.sign": ">", "TGI": 100}
{"compound": "FC(F)(F)c1ccc2nc(-c3nc(-c4ccccc4)n4ccccc34)[nH]c2c1", "units.of.measure": "µM", "censoring.sign": "=", "TGI": 40.3}
{"compound": "COC(=O)C1=CC(=O)C(C(=O)Nc2ccc(OC)cc2)C(c2ccccc2)O1 (stereo not given)", "units.of.measure": "µM", "censoring.sign": ">", "TGI": 100}
{"compound": "COC12C=C/C(=C(/C(=O)OCc3ccncn3)C(=O)CCCCCCCCC3(OC)C=C/C(=C(/C(=O)OCc4ccncn4)C(=O)CCCCCCCC1)O3)O2", "units.of.measure": "µM", "censoring.sign": "=", "TGI": 5.55}
{"compound": "CCCOC(=O)C1CCC(=O)N1C(=O)C(Cl)Cl (stereo not given)", "units.of.measure": "µM", "censoring.sign": ">", "TGI": 100}

----------
TGI values, listed per item
# System: U251 CNS
# experiment.description: NCI tumour cell line growth inhibition, 48 h
parameter.measured: TGI

{"compound": "CCN1CCC(C(=O)Nc2n[nH]c3nnc(-c4cccc(F)c4F)cc23)CC1", "parameter.measured": "TGI", "observed": "> 25 µM"}
{"compound": "C=C1C(=O)O[C@@H]2[C@@H]3O[C@@](C)(CC/C=C(\\C)CCC[C@@H]2C)[C@H](O)C[C@@H]13", "parameter.measured": "TGI", "observed": "15.6 µM"}
{"compound": "O=C1C=Cc2c(Cl)sc(Cl)c21", "parameter.measured": "TGI", "observed": "> 100 µM"}
{"compound": "C[N+](C)(C)CC(=O)N/N=C(/C=C/c1ccccc1)CC1OC(=O)c2ccccc21 (stereo unspecified)", "parameter.measured": "TGI", "observed": "> 100 µM"}
{"compound": "CCOC(=O)c1cc2c(n1Cc1cccc(OC)c1)-c1oncc1CC2", "parameter.measured": "TGI", "observed": "> 100 µM"}
{"compound": "COc1ccc(C(=O)O/N=C2\\CCCC\\C2=C/c2ccccc2)cc1", "parameter.measured": "TGI", "observed": "> 100 µM"}
{"compound": "CCOC(=O)C1=CN=C2C(=O)N(c3ccccc3)N(C)C2(C)C1=N (stereo unspecified)", "parameter.measured": "TGI", "observed": "> 100 µM"}
{"compound": "CC1(CCCC2(C)CCNC2=O)OCCO1 (stereo unspecified)", "parameter.measured": "TGI", "observed": "> 10 µM"}
{"compound": "C=CCOc1ccc(C2c3c([nH][nH]c3=O)CC(O)(OCC)C2C(=O)OCC)cc1OC (stereo unspecified)", "parameter.measured": "TGI", "observed": "> 100 µM"}
{"compound": "COC(=O)C1=Cc2cc3c(cc2[C@H](c2ccc4c(c2)OCO4)C1C(=O)OC)OCO3 (stereo partly specified)", "parameter.measured": "TGI", "observed": "> 100 µM"}
{"compound": "CCOP1(=O)OCC2OC(n3cnc4c(N)ncnc43)C(O)C2O1 (stereo unspecified)", "parameter.measured": "TGI", "observed": "> 100 µM"}
{"compound": "C=CCCc1cc(OC)ccc1CN(C)C(C)(C)CO", "parameter.measured": "TGI", "observed": "> 100 µM"}
{"compound": "Cc1nc2c(cc1C(=O)NN)c(=O)n(C)c(=O)n2C", "parameter.measured": "TGI", "observed": "> 100 µM"}
{"compound": "Oc1ccc2c(c1)-c1c(c3cc(O)ccc3n1CCN1CCOCC1)CC2", "parameter.measured": "TGI", "observed": "49 µM"}
{"compound": "Nn1c(Cc2ccc(Cl)cc2)n[nH]c1=O", "parameter.measured": "TGI", "observed": "> 100 µM"}
{"compound": "O=S(=O)(c1ccccc1)n1c(C(O)c2ccncc2)cc2ccccc21 (stereo unspecified)", "parameter.measured": "TGI", "observed": "> 100 µM"}
{"compound": "COc1cc2c(cc1OCCCC(=O)Nc1cc(C(=O)Nc3cc(C(=O)Nc4cc(C(=O)NCCCN(C)C)n(C)c4)n(C)c3)n(C)c1)N=C[C@@H]1CCCN1C2=O", "parameter.measured": "TGI", "observed": "3.01 µM"}
{"compound": "CC(=O)NNc1nc(C)c(C(/C=C/c2ccc(/C=C/C(=N\\NC(=O)c3ccncc3)c3sc(NNC(C)=O)nc3C)cc2)=N/NC(=O)c2ccncc2)s1", "parameter.measured": "TGI", "observed": "> 100 µM"}
{"compound": "CCCCC1(N=[N+]=[N-])C(=O)c2cccc3c2N(CCC3)C1=O (stereo unspecified)", "parameter.measured": "TGI", "observed": "> 100 µM"}
{"compound": "COc1cc[c]([Hg][Cl])cc1", "parameter.measured": "TGI", "observed": "3.51 µM"}
{"compound": "NC(=O)C/C=C/CC(N)=O", "parameter.measured": "TGI", "observed": "> 100 µM"}
